System: 769-P
Experiment: GI50, drug alone; higher = less potent
Conditions: treatment: drug alone; 5 days
assay-endpoint: GI50, drug alone

Check out these entries, answers already filled in.
Cc1ccc(C(=O)Nc2ccc(CN3CCN(C)CC3)c(C(F)(F)F)c2)cc1C#Cc1cnc2cccnn12 : 2.21 µM
COc1ccc(-c2ccc3c(N4CCOC[C@@H]4C)nc(N4CCOC[C@@H]4C)nc3n2)cc1CO [AZD8055] : 0.171 µM

Consider now this further compound.
Query block: Could you tell me which GI50, drug alone is on file for Cc1cc(C)c(/C=C2\C(=O)Nc3ccccc32)[nH]1 [Semaxanib (SU5416)] ?
Result block: > 10 µM

The reported numbers originate from the supplement of paper PMC8149375.
